- Test system: Human immunodeficiency virus 1
- EXPERIMENT: Antiviral activity against NNRTI-resistant HIV1 with reverse transcriptase L100I mutant in HeLa cells by MAGI assay
- Type: functional, organism-based
- TEST_CONTEXT: Human immunodeficiency virus 1, HeLa
READOUT_NAME: pIC50
When answering, recall that pIC50 equals minus log10 of the concentration in mol/L, and write that number alone.

Check out these entries, answers already filled in.
O=C(COc1ccc(Cl)cc1C(=O)c1ccccc1)Nc1ccccc1: 7.68
Cc1ccnc2c1NC(=O)c1cccnc1N2C1CC1: 6.52
CC(C)Nc1cccnc1N1CCN(C(=O)c2cc3cc(NS(C)(=O)=O)ccc3[nH]2)CC1: 6.11
Cc1cc(S(N)(=O)=O)ccc1NC(=O)COc1ccc(Cl)cc1C(=O)c1cc(Cl)cc(C#N)c1: 9.52
Cc1cc(S(N)(=O)=O)ccc1NC(=O)COc1ccc(Cl)cc1C(=O)c1cc(F)cc(C(F)(F)F)c1: 8.96

// next entry
Task: // lookup pIC50 for O=C1Nc2ccc(Cl)cc2C(C#CC2CC2)(C(F)(F)F)O1 (single isomer, unassigned)
Output: 7.68

----------
- Tested on: Human immunodeficiency virus 1
- EXPERIMENT: Antiviral activity against NNRTI-resistant HIV1 with reverse transcriptase K103N/L100I mutant in HeLa cells by MAGI assay
- Type: functional, organism-based
- TEST_CONTEXT: Human immunodeficiency virus 1, HeLa
Each item that follows carries a reported IC50.
Field: numeric (nM). Do not append units.

Check out these entries, answers already filled in.
O=C(COc1ccc(Cl)cc1C(=O)c1ccccc1)Nc1ccccc1: 269
Cc1cc(S(N)(=O)=O)ccc1NC(=O)COc1ccc(Cl)cc1C(=O)c1cc(F)cc(C(F)(F)F)c1: 2.8
Cc1cc(S(N)(=O)=O)ccc1NC(=O)COc1ccc(Cl)cc1C(=O)c1cc(Cl)cc(C#N)c1: 0.9

// next entry
Task: // lookup IC50 for O=C1Nc2ccc(Cl)cc2C(C#CC2CC2)(C(F)(F)F)O1 (single isomer, unassigned)
Output: 1200

----------
- System: Human immunodeficiency virus 1
- EXPERIMENT: Antiviral activity against NNRTI-resistant HIV1 with reverse transcriptase Y188C mutant in HeLa cells by MAGI assay
- Type: functional, organism-based
- TEST_CONTEXT: Human immunodeficiency virus 1, HeLa
pIC50: −log10 of the molar value.
Label condition met when pIC50 is at or above 9; otherwise label condition not met.

Worked cases, answers included:
Cc1ccnc2c1NC(=O)c1cccnc1N2C1CC1: condition not met
CC(C)Nc1cccnc1N1CCN(C(=O)c2cc3cc(NS(C)(=O)=O)ccc3[nH]2)CC1: condition not met

Task: Dear colleague, could you confirm whether Cc1cc(S(N)(=O)=O)ccc1NC(=O)COc1ccc(Cl)cc1C(=O)c1cc(Cl)cc(C#N)c1 has pIC50 at or above 9?
Output: condition met

Task: Dear colleague, could you confirm whether O=C(COc1ccc(Cl)cc1C(=O)c1ccccc1)Nc1ccccc1 has pIC50 at or above 9?
Output: condition not met

Task: Dear colleague, could you confirm whether Cc1cc(S(N)(=O)=O)ccc1NC(=O)COc1ccc(Cl)cc1C(=O)c1cc(F)cc(C(F)(F)F)c1 has pIC50 at or above 9?
Output: condition met

----------
- Tested on: Human immunodeficiency virus 1
- EXPERIMENT: Antiviral activity against NNRTI-resistant HIV1 with reverse transcriptase V106M mutant in HeLa cells by MAGI assay
- Type: functional, organism-based
- TEST_CONTEXT: Human immunodeficiency virus 1, HeLa
READOUT_NAME: IC50 (nM)
Field: numeric (nM). Do not append units.

O=C1Nc2ccc(Cl)cc2C(C#CC2CC2)(C(F)(F)F)O1 (single isomer, unassigned): 7.2
Cc1cc(S(N)(=O)=O)ccc1NC(=O)COc1ccc(Cl)cc1C(=O)c1cc(Cl)cc(C#N)c1: 0.4

// next entry
Task: // lookup IC50 for O=C(COc1ccc(Cl)cc1C(=O)c1ccccc1)Nc1ccccc1
Output: 155

----------
- System: Human immunodeficiency virus 1
- EXPERIMENT: Antiviral activity against NNRTI-resistant HIV1 with reverse transcriptase K101E mutant in HeLa cells by MAGI assay
- Assay type: functional, organism-based
- TEST_CONTEXT: Human immunodeficiency virus 1, HeLa
We label by threshold. Values of IC50 strictly beneath 10 nM are satisfied. Values of 10 nM and up are not satisfied.

Worked cases, answers included:
O=C(COc1ccc(Cl)cc1C(=O)c1ccccc1)Nc1ccccc1: not satisfied
Cc1ccnc2c1NC(=O)c1cccnc1N2C1CC1: not satisfied
Cc1cc(S(N)(=O)=O)ccc1NC(=O)COc1ccc(Cl)cc1C(=O)c1cc(Cl)cc(C#N)c1: satisfied
CC(C)Nc1cccnc1N1CCN(C(=O)c2cc3cc(NS(C)(=O)=O)ccc3[nH]2)CC1: not satisfied
O=C1Nc2ccc(Cl)cc2C(C#CC2CC2)(C(F)(F)F)O1 (single isomer, unassigned): satisfied

Task: Determine whether this molecule shows IC50 lower than 10 nM (ties excluded): Cc1cc(S(N)(=O)=O)ccc1NC(=O)COc1ccc(Cl)cc1C(=O)c1cc(F)cc(C(F)(F)F)c1
Output: satisfied

----------
- Test system: Human immunodeficiency virus 1
- EXPERIMENT: Antiviral activity against NNRTI-resistant HIV1 with reverse transcriptase V108I/Y181C mutant in HeLa cells by MAGI assay
- Assay type: functional, organism-based
- TEST_CONTEXT: Human immunodeficiency virus 1, HeLa
READOUT_NAME: IC50 (nM)
Field: numeric (nM). Do not append units.

Check out these entries, answers already filled in.
O=C1Nc2ccc(Cl)cc2C(C#CC2CC2)(C(F)(F)F)O1 (single isomer, unassigned): 2.7
Cc1cc(S(N)(=O)=O)ccc1NC(=O)COc1ccc(Cl)cc1C(=O)c1cc(F)cc(C(F)(F)F)c1: 3.2
Cc1cc(S(N)(=O)=O)ccc1NC(=O)COc1ccc(Cl)cc1C(=O)c1cc(Cl)cc(C#N)c1: 0.6

// next entry
Task: // lookup IC50 for O=C(COc1ccc(Cl)cc1C(=O)c1ccccc1)Nc1ccccc1
Output: 638

----------
- Tested on: Human immunodeficiency virus 1
- EXPERIMENT: Antiviral activity against NNRTI-resistant HIV1 with reverse transcriptase K103N/P225H mutant in HeLa cells by MAGI assay
- Type: functional, organism-based
- TEST_CONTEXT: Human immunodeficiency virus 1, HeLa
READOUT_NAME: pIC50
When answering, recall that pIC50 equals minus log10 of the concentration in mol/L, and write that number alone.

Task: // lookup pIC50 for Cc1cc(S(N)(=O)=O)ccc1NC(=O)COc1ccc(Cl)cc1C(=O)c1cc(F)cc(C(F)(F)F)c1
Output: 8.85

Task: // lookup pIC50 for O=C(COc1ccc(Cl)cc1C(=O)c1ccccc1)Nc1ccccc1
Output: 7.25

Task: // lookup pIC50 for Cc1cc(S(N)(=O)=O)ccc1NC(=O)COc1ccc(Cl)cc1C(=O)c1cc(Cl)cc(C#N)c1
Output: 9.15
